From: the NIST ThermoML archive (doi:10.1016/j.jct.2013.08.030)

Assay: activity coefficient (dimensionless); of the first substance listed, at infinite dilution; xn = mol fraction of the nth substance listed
Conditions: 318.15 K; 101 kPa; Liquid; Chromatography; x1 = 0
Would you please tag the item rule met when its activity coefficient is 20 or above, and rule not met when it is below?

compound: CCCCCC [hexane] + CCCC[N+]1(C)CCOCC1.N#C[C-](C#N)C#N
label_value: rule met
//
compound: CC#N [acetonitrile] + CCCC[N+]1(C)CCOCC1.N#C[C-](C#N)C#N
label_value: rule not met
//
compound: Cc1cccc(C)c1 [1,3-dimethylbenzene] + CCCC[N+]1(C)CCOCC1.N#C[C-](C#N)C#N
label_value: rule not met
//
compound: C=Cc1ccccc1 [styrene] + CCCC[N+]1(C)CCOCC1.N#C[C-](C#N)C#N
label_value: rule not met
//
compound: CCC(C)O (centres undefined) [butan-2-ol] + CCCC[N+]1(C)CCOCC1.N#C[C-](C#N)C#N
label_value: rule not met
//
compound: CCCOCCC [dipropyl ether] + CCCC[N+]1(C)CCOCC1.N#C[C-](C#N)C#N
label_value: rule not met
//
compound: C#CCCCC [1-hexyne] + CCCC[N+]1(C)CCOCC1.N#C[C-](C#N)C#N
label_value: rule not met
//
compound: C1COCCO1 [1,4-dioxane] + CCCC[N+]1(C)CCOCC1.N#C[C-](C#N)C#N
label_value: rule not met
//
compound: CCC(C)(C)OC [2-methoxy-2-methylbutane] + CCCC[N+]1(C)CCOCC1.N#C[C-](C#N)C#N
label_value: rule not met
//
compound: O [water] + CCCC[N+]1(C)CCOCC1.N#C[C-](C#N)C#N
label_value: rule not met
//
compound: C#CCCCCC [1-heptyne] + CCCC[N+]1(C)CCOCC1.N#C[C-](C#N)C#N
label_value: rule not met
//
compound: Cc1ccccc1 [toluene] + CCCC[N+]1(C)CCOCC1.N#C[C-](C#N)C#N
label_value: rule not met
//
compound: C1CCCCCCC1 [cyclooctane] + CCCC[N+]1(C)CCOCC1.N#C[C-](C#N)C#N
label_value: rule met
//
compound: C1CCCCC1 [cyclohexane] + CCCC[N+]1(C)CCOCC1.N#C[C-](C#N)C#N
label_value: rule met
//
compound: CCC(C)(C)C [2,2-dimethylbutane] + CCCC[N+]1(C)CCOCC1.N#C[C-](C#N)C#N
label_value: rule met
//
compound: CO [methanol] + CCCC[N+]1(C)CCOCC1.N#C[C-](C#N)C#N
label_value: rule not met
//
compound: c1ccsc1 [thiophene] + CCCC[N+]1(C)CCOCC1.N#C[C-](C#N)C#N
label_value: rule not met
//
compound: CCCCCCCC [octane] + CCCC[N+]1(C)CCOCC1.N#C[C-](C#N)C#N
label_value: rule met
//
compound: C=CCCCCCCCC [1-decene] + CCCC[N+]1(C)CCOCC1.N#C[C-](C#N)C#N
label_value: rule met
